ASSAY: BET inhibitor-based combinations targeting novel dependencies in MECOM-rearranged (r) AML: SET-2 cell line (AID 2202231); further: potency means the concentration at half of the fitted maximal effect; nearly all actives have a fitted effect of over 35% in size
CONDITION: SET-2 AML cells viability, CellTiter-Glo luminescence, 48 h
Results filed as inconclusive are left out. Activity calls are given as the source filed them. The call rests on the fitted dose curve; in most records, active means well fitted inhibition curve with a large enough effect; inconclusive means small, poorly fitted or top-dose-only effect; inactive means no such curve, though single readings can be large or run the other way.
Listed here are molecules together with their documented Potency.
READOUT TYPE: Potency

MOLECULE	READOUT TYPE	MEASURED RESULT
COCCOC(=O)C1=C(C)NC2=C(C(=O)CC(c3ccccc3OC)C2)C1c1cccc(O)c1 (stereo unspecified)	Potency	16.6 µM (active)
Nc1nccc(-c2c(-c3ccc(F)cc3)ncn2C2CCCCC2)n1	Potency	20.9 µM (active)
CC[C@@]1(O)C[C@H](O[C@H]2C[C@H](N(C)C)[C@H](O[C@H]3C[C@H](O)[C@H](O[C@H]4CCC(=O)[C@H](C)O4)[C@H](C)O3)[C@H](C)O2)c2c(cc3c(c2O)C(=O)c2c(O)cccc2C3=O)[C@@H]1C(=O)OC	Potency	3.72 µM (active)
Nc1ccc(C(=O)c2cc3c(ccc4ccccc43)[nH]2)cc1	Potency	30.3 µM (active)
Cc1nc2ccc(CN(C)c3ccc(C(=O)N[C@@H](CCC(=O)O)C(=O)O)s3)cc2c(=O)[nH]1	Potency	0.0468 µM (active)
Nc1ccc(F)cc1NC(=O)c1ccc(CNC(=O)/C=C/c2cccnc2)cc1	Potency	13.2 µM (active)

----------
ASSAY: BET inhibitor-based combinations targeting novel dependencies in MECOM-rearranged (r) AML: AML-191 cell line (AID 2202236; further: nearly all actives have a fitted effect of over 35% in size; further: potency means the concentration at half of the fitted maximal effect)
CONDITION: AML-191 viability, CellTiter-Glo luminescence, 48 h; series mostly up to 46 µM
Inconclusive results are not listed. Activity calls are given as the source filed them. The call rests on the fitted dose curve; in most records, active means well fitted inhibition curve with a large enough effect; inconclusive means small, poorly fitted or top-dose-only effect; inactive means flat fitted curve, though single readings scatter.
READOUT TYPE: Potency

                                        smi  readout_type     measured_result
0           Cc1ccc(Sc2ccccc2N2CCNCC2)c(C)c1       Potency    18.6 µM (active)
1  C[C@H]1[C@H](C)CC[C@]2(C(=O)O)CC[C@]3(C)C(=CC[C@@H]4[C@@]5(C)C[C@@H](O)[C@H](O)[C@@](C)(CO)[C@@H]5CC[C@]43C)[C@H]12       Potency            inactive
2  C/C=C1\NC(=O)[C@H]2CSSCC/C=C\[C@H](CC(=O)N[C@H](C(C)C)C(=O)N2)OC(=O)[C@H](C(C)C)NC1=O       Potency  0.0148 µM (active)
3  COc1ccccc1-c1cccc(-c2c(O)c3cc(C#N)c(Cl)cc3[nH]c2=O)c1       Potency            inactive
4  N#C/C(=C(/N)Sc1ccc(N)cc1)c1ccccc1C(F)(F)F       Potency     5.9 µM (active)

----------
ASSAY: BET inhibitor-based combinations targeting novel dependencies in MECOM-rearranged (r) AML: OCI-AML3 cell line (AID 2202232); further: nearly all actives have a fitted effect of over 35% in size; further: potency means the concentration at half of the fitted maximal effect
CONDITION: CellTiter-Glo luminescence, 48 h; OCI-AML3 viability; series mostly up to 46 µM
Results filed as inconclusive are left out. Calls of active or inactive are those of the source. Calls come from the whole dose curve; as a rule, active = well fitted inhibition curve with a large enough effect; inconclusive = small, poorly fitted or top-dose-only effect; inactive = no such curve, though single readings can be large or run the other way.
READOUT TYPE: Potency

In [3]: df
Out[3]:
                                   molecule  readout_type     measured_result
0  CC(C)NCCCn1c(Sc2cc(Cl)cc(Cl)c2)nc2c(N)ncnc21       Potency    10.5 µM (active)
1  C[C@@H]1C[C@H](N)C[C@H](c2ccncc2NC(=O)c2ccc(F)c(-c3c(F)cccc3F)n2)C1       Potency    16.6 µM (active)
2  C[C@]12CCC3[C@@H](CC[C@H]4NC(=O)C=C[C@]34C)[C@@H]1CC[C@@H]2C(=O)Nc1cc(C(F)(F)F)ccc1C(F)(F)F (stereo partly drawn)       Potency            inactive
3  Cc1ccc(C(=O)N(CCCN)[C@@H](c2nc3cc(Cl)ccc3c(=O)n2Cc2ccccc2)C(C)C)cc1       Potency  0.0295 µM (active)
4  CN(C)CCN1C(=O)c2cccc3cc(NC(N)=O)cc(c23)C1=O       Potency    13.2 µM (active)
5  CCC(=O)N1CCOc2c(cc(-c3cc(OC)cc(OC)c3)cc2C(=O)N[C@H]2CCCN(C)C2)C1       Potency    16.6 µM (active)
6        N=C1CCCN1Cc1[nH]c(=O)[nH]c(=O)c1Cl       Potency            inactive
7  CN[C@H]1CN(c2ccc3c(=O)c(C(=O)O)cn(-c4nccs4)c3n2)C[C@@H]1OC       Potency    1.08 µM (active)

----------
ASSAY: BET inhibitor-based combinations targeting novel dependencies in MECOM-rearranged (r) AML: HNT-34 cell line (AID 2202234); further: nearly all actives have a fitted effect of over 35% in size
CONDITION: HNT-34 AML viability, CellTiter-Glo luminescence, 48 h; series mostly up to 46 µM
Description: Ecotropic viral insertion site 1 (EVI1) is located on chromosome 3q26.2 as part of the MECOM (MDS and EVI1 complex) locus. […] A collection of 2480 mechanistically annotated dugs (MIPE v5.0) was used to screen four 3q26.2 rearranged AML cell lines and three non-3q26.2 rearranged AML cell lines. […] Cell viability was determined by luminescence based, Cell Titer Glo assay (Promega). […] Luminescence readings were taken using a Viewlux (PerkinElmer) with a 2 s exposure time per plate. […]
Results filed as inconclusive are left out. The source made the active and inactive calls. Calls follow the shape of the dose curve; as a rule, active = well fitted inhibition curve with a large enough effect; inconclusive = small, poorly fitted or top-dose-only effect; inactive = no such curve, though single readings can be large or run the other way.
Outcomes: yes (1) = active, no (0) = inactive

>>> print(df.to_string())
                                        smi  discrete_label
0  Cc1nc2ccc(CN(C)c3ccc(C(=O)N[C@@H](CCC(=O)O)C(=O)O)s3)cc2c(=O)[nH]1          no (0)
1     CCc1c(-c2ccccc2C)nc2c(C#N)c[nH]n2c1=O          no (0)
2  C/C(=C\c1csc(C)n1)[C@@H]1C[C@@H]2O[C@]2(C)CCC[C@H](C)[C@H](O)[C@@H](C)C(=O)C(C)(C)[C@@H](O)CC(=O)N1         yes (1)

----------
TARGET OR SYSTEM: Retinal dehydrogenase 2 (Homo sapiens)
ASSAY: qHTS for Inhibitors of the Aldehyde Dehydrogenase Family (ALDH1A2) Confirmation screens (AID 2061314); further: nearly all actives have a fitted effect of over 65% in size
CONDITION: ALDH1A2 enzyme inhibition qHTS confirmation; series mostly up to 45.9 µM
Results filed as inconclusive are left out. Activity calls are given as the source filed them. Calls follow the shape of the dose curve; as a rule, active = well fitted inhibition curve with a large enough effect; inconclusive = small, poorly fitted or top-dose-only effect; inactive = no such curve, though single readings can be large or run the other way.
Outcomes: active, inactive

>>> print(df.to_string())
                                    compound  discrete_label
 0   COc1ccc(C(=O)N(Cc2ccco2)Cc2ccco2)c(O)c1          active
 1  CN(C)c1ccc(-c2csc(N3CCC(C(N)=O)CC3)n2)cc1          active
 2           CNc1oc(-c2c[nH]c3ccccc23)nc1C#N        inactive
 3  CC(=O)NC(c1cc(Cl)c2ccccc2c1O)C(C)C (centres undefined)          active
 4  O=C(NCc1ccc(F)cc1)c1ccc2nnc(-c3cccc(C(F)(F)F)c3)n2c1        inactive
 5  COc1cc(-c2noc(-c3ccc(NC4CCCCC4)c([N+](=O)[O-])c3)n2)cc(OC)c1OC        inactive
 6         O=C(c1ccccc1O)N(Cc1ccco1)Cc1cccs1          active
 7  COc1ccc(C2Nc3ccccc3C(=O)N2Cc2cccc3ccccc23)cc1COc1ccc(NC(C)=O)cc1 (centres undefined)          active
 8  O=C(Nc1cccc(C(F)(F)F)c1)c1cc(-c2ccc(Cl)cc2)on1        inactive
 9  CC(C)(C)OC(=O)N1CCN(c2ccc(NCc3ccc(-c4ccc(C#N)cc4)s3)cc2)CC1        inactive
10  O=C([C@H](Cc1ccc(O[S+](=O)([O-])c2cccnc2)cc1)N[S+](=O)([O-])c1ccccn1)N1CCN(c2ccccc2)CC1          active
11  CC(C)(C)OC(=O)N1CCN(c2ccc(NCc3occc3-c3ccc(C#N)cc3)cc2)CC1          active
12    NC(=O)C1CCN(c2ncc(-c3ccc(Br)cc3)s2)CC1        inactive
13  c1c[nH]c(C2CCN(c3ncc(-c4ccc5c(c4)OCCCO5)s3)CC2)n1          active
14  COc1ccc(S(=O)(=O)NCc2nc3nc(C)cc(C)n3n2)cc1OC        inactive
15       O=S1(=O)Nc2c(ccc3cccnc23)-c2ccccc21          active
16  COCCNC(=O)CCSc1nc(-c2ccc(OC)cc2)cc(C(F)(F)F)n1        inactive
17  CNC(=O)[C@H]1C[C@H](Oc2cccnc2)CN1C(=O)Cc1ccccc1        inactive
18  O=C(CN1C(=O)N/C(=C\c2cn(-c3cccc(C(=O)O)c3)cn2)C1=O)Nc1ccccc1Cl        inactive
19  CCOc1ccc(C(=O)N2CCN(Cc3cc(=O)n4nc(-c5cccc(OC)c5)sc4n3)CC2)cc1        inactive
20  CCOc1ccc(C(=O)Nc2ccc(S(=O)(=O)N3CCCCC3c3cccnc3)cc2)cc1 (centres undefined)        inactive
21  Nc1ccc(CNc2ccc([S+](=O)([O-])Nc3nccs3)cc2)c(O)c1          active
22  COC(=O)c1cc(C)nc2c1c(=O)nc(SCc1ccccc1C)n2C1CC1        inactive
23  CCc1nnc2sc(-c3ccc(C)c(NC(=O)c4ccc(-c5cccc(Cl)c5)o4)c3)nn12          active
24  Cc1oc2ncnc(N3CCOCC3)c2c1C(=O)NCc1ccc(Cl)cc1        inactive
25  COc1ccc(-c2ccc(=O)n(CC(=O)NCCc3ccccc3)n2)cc1          active
26  Cn1cc(S(=O)(=O)N2CCCCC2)cc1C(=O)Nc1ccc(OC(F)(F)F)cc1        inactive
27  CN(C)c1cccc(-c2cnc(N3CCC(C(N)=O)CC3)nc2)c1          active
28  COc1ccc(Cn2c(=O)[nH]c3cc(C(=O)N4CCN(c5ccccc5)CC4)ccc3c2=O)cc1        inactive
